Target: DLG2_3, Q15700
Experiment: holdup assay
Parameters: key: below the threshold = too weak to quantify, mostly under pKd 3.1 to 4
Conditions: plain residues with an end cap or a label only (N-terminal biotin on a linker: ado-ado)
For each entry below, report its pKd value.
Give a plain numeric answer without units written out.

Prompt: Fill in: pKd of PSHPRLQTHV [KIRREL2, Q6UWL6] is ___
Completion: 4.26

Prompt: Fill in: pKd of NISYRRESAI [KCNJ4, P48050] is ___
Completion: 4.36

Prompt: Fill in: pKd of EDPRVEVTQF [SLC22A9, Q8IVM8] is ___
Completion: 3.71

Prompt: Fill in: pKd of SFISKKEWYV [NECTIN1, Q15223] is ___
Completion: 3.63

Prompt: Fill in: pKd of DRIQSCLSDA [SBF1, O95248] is ___
Completion: 3.78

Prompt: Fill in: pKd of ILRKSTTTTV [PRR16, Q569H4] is ___
Completion: 4.38

Prompt: Fill in: pKd of VLYPREGTEV [FOXI1, Q12951] is ___
Completion: 3.9

Prompt: Fill in: pKd of DTKNYKQTSV [CRIPT, Q9P021] is ___
Completion: 5.29

Prompt: Fill in: pKd of DGVNEKVSCV [HTR2A, P28223] is ___
Completion: 3.8

Prompt: Fill in: pKd of NTANRRTTPV [CACNG2, Q9Y698] is ___
Completion: 4.82

Prompt: Fill in: pKd of EKCGKEFSEF [PRKACA, P17612] is ___
Completion: 3.74

Prompt: Fill in: pKd of PPGKHLVTEV [KCNA7, Q96RP8] is ___
Completion: 4.71

Prompt: Fill in: pKd of RQKEVRESKC [SCN8A, Q9UQD0] is ___
Completion: 4.07

Prompt: Fill in: pKd of TGLWKHETTV [ADGRA3, Q8IWK6] is ___
Completion: 4.86

Prompt: Fill in: pKd of KRPEMTSSSV [MUC3A, MUC3B, Q02505;Q9H195] is ___
Completion: 3.88

Prompt: Fill in: pKd of SLNANEVEWF [RNF130, Q86XS8] is ___
Completion: 3.73

Prompt: Fill in: pKd of QLSFNTDTLC [ABCA2, Q9BZC7] is ___
Completion: 3.73

Prompt: Fill in: pKd of EDLEDEWEVI [TECPR2, O15040] is ___
Completion: 3.77

Prompt: Fill in: pKd of IDESKKEWLI [CNTNAP2, Q9UHC6] is ___
Completion: 3.57

// data source = paper PMC9482650
